- ASSAY_SYSTEM: T1, human LAG-3 expressed on cells (DO11.10 or HEK 293 cells over-expressing human LAG-3) (human, UniProt P18627 23-525)
- T1 sequence: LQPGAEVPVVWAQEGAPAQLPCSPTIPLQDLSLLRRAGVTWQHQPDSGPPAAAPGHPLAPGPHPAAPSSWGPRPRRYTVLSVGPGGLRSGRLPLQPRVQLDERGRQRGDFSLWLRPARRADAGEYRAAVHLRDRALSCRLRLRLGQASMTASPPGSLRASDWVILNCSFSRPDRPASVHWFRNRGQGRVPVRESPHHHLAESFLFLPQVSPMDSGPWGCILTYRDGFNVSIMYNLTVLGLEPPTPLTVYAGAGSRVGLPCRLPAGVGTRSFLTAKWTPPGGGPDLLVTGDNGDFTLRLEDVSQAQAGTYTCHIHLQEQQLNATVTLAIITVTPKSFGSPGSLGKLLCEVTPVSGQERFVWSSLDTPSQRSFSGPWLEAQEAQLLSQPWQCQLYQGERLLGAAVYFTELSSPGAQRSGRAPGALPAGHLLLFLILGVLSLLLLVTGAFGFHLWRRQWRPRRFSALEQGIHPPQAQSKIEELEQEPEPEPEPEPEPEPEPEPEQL
- PROTOCOL_DETAILS: cell-based or functional assay
ASSAY_READOUT: EC50 of mIL-2 release, DO11.10 T cell activation assay (human LAG-3)

Check out these entries, answers already filled in.
{"BINDER": "anti-human LAG-3 Fcab FS18-7-32 with truncated hinge and LALA mutation (designed binder) TCPPCPAPEAAGGPSVFLFPPKPKDTLMISRTPEVTCVVVDVSHEDPEVKFNWYVDGVEVHNAKTKPREEQYNSTYRVVSVLTVLHQDWLNGKEYKCKVSNKALPAPIEKTISKAKGQPREPQVYTLPPSWDEPWGEDVSLTCLVKGFYPSEIAVEWESNGQPENNYKTTPPVLDSDGSFFLYSKLTVPYDRWVWPDEFSCSVMHEALHNHYTQKSLSLSPG", "RESULT": "1.7 nM"}
{"BINDER": "anti-human LAG-3 Fcab FS18-7-65 with truncated hinge and LALA mutation (designed binder) TCPPCPAPEAAGGPSVFLFPPKPKDTLMISRTPEVTCVVVDVSHEDPEVKFNWYVDGVEVHNAKTKPREEQYNSTYRVVSVLTVLHQDWLNGKEYKCKVSNKALPAPIEKTISKAKGQPREPQVYTLPPSWDEPWGEDVSLTCLVKGFYPSDIAVEWESNGYAEYNYKTTPPVLDSDGSFFLYSKLTVPYDRWVWPDEFSCSVMHEALHNHYTQKSLSLSPG", "RESULT": "1.1 nM"}

Now take the following binder into account.
q: Which measured EC50 of mIL-2 release, DO11.10 T cell activation assay (human LAG-3) value corresponds to anti-human LAG-3 Fcab FS18-7-58 with truncated hinge and LALA mutation (designed binder) TCPPCPAPEAAGGPSVFLFPPKPKDTLMISRTPEVTCVVVDVSHEDPEVKFNWYVDGVEVHNAKTKPREEQYNSTYRVVSVLTVLHQDWLNGKEYKCKVSNKALPAPIEKTISKAKGQPREPQVYTLPPSWDEPWGEDVSLTCLVKGFYPSDIAVEWESNGYPEIEFKTTPPVLDSDGSFFLYSKLTVPYDRWVWPDEFSCSVMHEALHNHYTQKSLSLSPG ?
a: 1.3 nM
